Cited source for all entries: patent US12187716B2

For JAK1 (Homo sapiens), measured IC50 is reported for the entries below.
measurement-name: IC50 (nM)

INSERT INTO assay_data (compound, val) VALUES
  ('NC(=O)c1nc(-c2c(Cl)cccc2Cl)oc1Nc1ccc(C(=O)N2CCS(=O)(=O)CC2)cc1 [Compound (2)]', 20);

(1) NC(=O)c1nc(-c2c(Cl)cccc2Cl)oc1Nc1ccc(C(=O)N2CCOCC2)cc1 [Comparative Compound B, reference compound]
(2) NC(=O)c1nc(-c2c(F)cccc2Cl)oc1Nc1ccc(C(=O)N2CCOCC2)cc1 [A, reference compound]
Hey, between 1 and 2 which has a smaller measured IC50? When you have decided, please share the label of that item.
1
(1: 26 nM, 2: 49 nM)
